Assay: Pharmacokinetics in mice
Type: in vivo, mouse
Settings: NSG, mouse, in vivo, NSG mice; read-out: T1/2 (converted)

Structure as smiles: O=C(Nc1ccnc(C(F)(F)F)c1)c1cnn(-c2cccc3c(=O)[nH]ccc23)c1C(F)(F)F
half-life (h): 5.74

----------
Test: Pharmacokinetics in mice
Format: in vivo, mouse
Settings: NSG, mouse, in vivo, mice; read-out: half-life (converted)
Metric name: half-life

Structure as smiles: O=C(Nc1ccnc(C(F)(F)F)c1)c1cnn(-c2cccc3c(=O)[nH]ccc23)c1C(F)(F)F
Measurement: > 5 h

----------
Tested on: OCI-Ly10
Assay: Proliferation of ABC-DLBCL cell lines (IC50)
Type: cell-based
Settings: Homo sapiens, OCI-Ly10; read-out: IC50, inhibition of proliferation

Compound: C=CC(=O)N[C@H]1CCC[C@H]1NC(=O)c1sc2nccc3c2c1NC(=O)N3c1cnc(CC(C)C)cc1C (atropisomer, axis not shown)
Unit tag: nM
IC50: 18

----------
Test: Pharmacokinetics in mice
Type: in vivo, mouse
Conditions: mouse, in vivo, po; mice; read-out: oral bioavailability (% F)
Metric name: bioavailability

Structure as smiles: O=C(Nc1ccnc(C(F)(F)F)c1)c1cnn(-c2cccc3c(=O)[nH]ccc23)c1C(F)(F)F
Measurement: > 90%
